Attribution: paper PMC4802308

TESTED_SYSTEM: FGF2 (Homo sapiens)
Sequence (P09038 134-288 limits assumed): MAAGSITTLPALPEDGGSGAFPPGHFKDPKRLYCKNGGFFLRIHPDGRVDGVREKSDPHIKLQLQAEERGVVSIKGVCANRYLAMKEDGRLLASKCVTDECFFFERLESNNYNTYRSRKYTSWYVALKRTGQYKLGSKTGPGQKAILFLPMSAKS
ASSAY_PROTOCOL: SPR direct binding to sensorchip-immobilized FGF2
CONDITION: single site model, one experiment representative of two, read-out: Kd (dissociation constant) of FGF2/compound interaction
ENDPOINT_LABEL: Kd (µM)

COMPOUND | TESTED_SYSTEM | Kd (µM)
O=C(Nc1ccc2cc(S(=O)(=O)O)cc(O)c2c1)Nc1ccc2cc(S(=O)(=O)O)cc(O)c2c1 [SM27, reference compound] | FGF2 (Homo sapiens) | 0.335
Cc1cccc(/N=N/c2c(S(=O)(=O)O)cc3cc(NC(=O)Nc4ccc5c(O)c(/N=N/c6ccc7cc(S(=O)(=O)O)ccc7c6)c(S(=O)(=O)O)cc5c4)ccc3c2O)c1 | FGF2 (Homo sapiens) | 0.039

a. COc1ccccc1/N=N/c1c(S(=O)(=O)O)cc2cc(NC(=O)Nc3ccc4c(O)c(/N=N/c5ccc6cc(S(=O)(=O)O)ccc6c5N)c(S(=O)(=O)O)cc4c3)ccc2c1O
b. Cc1ccccc1/N=N/c1c(S(=O)(=O)O)cc2cc(NC(=O)Nc3ccc4c(O)c(/N=N/c5ccc6cc(S(=O)(=O)O)ccc6c5)c(S(=O)(=O)O)cc4c3)ccc2c1O
Kindly identify which of a and b has the larger recorded Kd value. # answer = label of selected item
b
(b: 0.318 µM, a: 0.125 µM)

###

Measured fold more active than the initial query SM27 (competition IC50) of individual entries
TESTED_SYSTEM: FGF2 (Homo sapiens)
Construct: purchased R&D Systems, obtained through the NCI-Biological Resources Branch
ASSAY_PROTOCOL: Competition with biotinylated recombinant TSP-1 domain (E123CaG1) for binding to FGF2 (DELFIA)
CONDITION: vs SM27

fold more active than the initial query SM27 (competition IC50) for Cc1ccc(/N=N/c2c(S(=O)(=O)O)cc3cc(NC(=O)Nc4ccc5c(O)c(/N=N/c6ccc7cc(S(=O)(=O)O)ccc7c6)c(S(=O)(=O)O)cc5c4)ccc3c2O)c(C)c1 ?
6–11 fold

fold more active than the initial query SM27 (competition IC50) for CC(=O)Nc1ccc(/N=N/c2c(S(=O)(=O)O)cc3cc(NC(=O)Nc4ccc5c(O)c(/N=N/c6ccccc6)c(S(=O)(=O)O)cc5c4)ccc3c2O)cc1 ?
6–11 fold

###

TESTED_SYSTEM: FGF2 (Homo sapiens)
ASSAY_PROTOCOL: Competition with biotinylated recombinant TSP-1 domain (E123CaG1) for binding to FGF2 (DELFIA)
CONDITION: mean ± SE of 3 experiments
ENDPOINT_LABEL: IC50 (nM)

COMPOUND | TESTED_SYSTEM | ENDPOINT_LABEL | VALUE_UNIT | REPORTED_VALUE
Cc1ccccc1/N=N/c1c(S(=O)(=O)O)cc2cc(NC(=O)Nc3ccc4c(O)c(/N=N/c5ccc6cc(S(=O)(=O)O)ccc6c5)c(S(=O)(=O)O)cc4c3)ccc2c1O | FGF2 (Homo sapiens) | IC50 | nM | 500

1. Cc1cccc(/N=N/c2c(S(=O)(=O)O)cc3cc(NC(=O)Nc4ccc5c(O)c(/N=N/c6ccc7cc(S(=O)(=O)O)ccc7c6)c(S(=O)(=O)O)cc5c4)ccc3c2O)c1
2. O=C(Nc1ccc2cc(S(=O)(=O)O)cc(O)c2c1)Nc1ccc2cc(S(=O)(=O)O)cc(O)c2c1 [SM27, reference compound]
Which of these two has the smaller recorded IC50: 1 or 2 ? # answer = label of selected item
1

A. CC(=O)Nc1ccc(/N=N/c2c(S(=O)(=O)O)cc3cc(NC(=O)Nc4ccc5c(O)c(/N=N/c6ccccc6)c(S(=O)(=O)O)cc5c4)ccc3c2O)cc1
B. Cc1ccc(/N=N/c2c(S(=O)(=O)O)cc3cc(NC(=O)Nc4ccc5c(O)c(/N=N/c6ccc7cc(S(=O)(=O)O)ccc7c6)c(S(=O)(=O)O)cc5c4)ccc3c2O)c(C)c1
Kindly identify which of A and B has the larger recorded IC50 value. # answer = label of selected item
B
